Listed below: % inhibition Apo pol 5' values for each entry.
measured-target: P. falciparum apicoplast DNA polymerase (Pf-apPOL) (Plasmodium falciparum, UniProt Q8ILY1)
Sequence (Q8ILY1 entry or part of it): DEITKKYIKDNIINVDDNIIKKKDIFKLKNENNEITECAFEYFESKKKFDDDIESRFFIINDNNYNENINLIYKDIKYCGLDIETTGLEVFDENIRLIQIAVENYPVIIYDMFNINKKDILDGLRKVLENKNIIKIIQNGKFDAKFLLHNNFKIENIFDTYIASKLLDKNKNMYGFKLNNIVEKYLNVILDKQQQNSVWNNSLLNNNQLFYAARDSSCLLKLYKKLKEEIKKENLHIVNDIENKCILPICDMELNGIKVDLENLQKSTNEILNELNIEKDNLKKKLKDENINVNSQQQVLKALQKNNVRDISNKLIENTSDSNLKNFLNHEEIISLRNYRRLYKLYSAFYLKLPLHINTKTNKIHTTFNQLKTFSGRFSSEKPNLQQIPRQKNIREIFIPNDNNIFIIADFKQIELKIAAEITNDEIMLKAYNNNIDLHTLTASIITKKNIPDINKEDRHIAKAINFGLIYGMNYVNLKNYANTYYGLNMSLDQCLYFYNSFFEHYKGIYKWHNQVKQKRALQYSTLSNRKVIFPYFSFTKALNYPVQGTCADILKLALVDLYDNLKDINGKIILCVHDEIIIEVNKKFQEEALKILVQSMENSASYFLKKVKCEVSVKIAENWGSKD
assay-procedure: Fluorescence-based high-throughput DNA polymerase assay (molecular beacon), primary screen and dose-response
Format: biochemical
measurement-conditions: conc 80 (unit not given); 5'; DRC-2
Quick reminder: number only, in %, skip the unit.

Guide cases for % inhibition Apo pol 5', answers given:
Any idea what its % inhibition Apo pol 5' is? The compound is O=[N+]([O-])c1cc2c(cc1CN1CCCCCC1)OCO2
49

Consider the compound shown here: COc1cc(/C=C2\S/C(=N/C(C)=O)NC2=O)cc(Br)c1OCC(=O)O What is its recorded % inhibition Apo pol 5'?
60

Next:
Can you share its % inhibition Apo pol 5'? I mean this compound: O=[N+]([O-])c1cc2c(cc1CN1CCN(c3cccc(Cl)c3)CC1)OCO2
49

So what does the record say about % inhibition Apo pol 5' for CSCCC(C)(O)CNC(=O)C1CC1 (stereo not drawn) ?
27

Fill blank: measured % inhibition Apo pol 5' of the compound CCSc1nnc(NC(=O)Cc2csc(NC(=O)c3cnccn3)n2)s1 is ____.
62

What value of measured % inhibition Apo pol 5' is listed for COc1ccccc1CCC(=O)N1CCc2c(nc3cc(-c4ccccc4)[nH]n3c2=O)C1 ?
21

====

measured-target: P. falciparum apicoplast DNA polymerase (Pf-apPOL) (Plasmodium falciparum)
assay-procedure: Fluorescence-based high-throughput DNA polymerase assay (molecular beacon), primary screen and dose-response
Format: biochemical
measurement-conditions: DRC-2; read at 5'; concentration 80
Classify on % inhibition Apo pol 5' 80 using low: < 30%; mid: ≥ 30% and < 40%; high: ≥ 40%

Study these solved cases before continuing.
Please let me know in which category the item CC(=O)OCC1=C(C(=O)[O-])N2C(=O)[C@@H](NC(=O)Cc3cccs3)[C@H]2SC1.[Na+] belongs.
high

Exercise: read the entry CC(=O)Nc1cc(C(=O)c2cccs2)nn(-c2ccc(Cl)cc2)c1=O and state which class it falls under.
mid

Hi, small favor: classify Cc1ccc(N2CCC(NC(=O)Cc3cccs3)C2=O)cc1C (stereo not drawn) by its % inhibition Apo pol 5' 80 when you get a moment.
low

Tag the class for CCCc1ccc(Oc2coc3cc(OC)ccc3c2=O)cc1
mid

Just checking, what class would you give CC(C)CC(C(=O)O)N1C(=O)C2C3C=CC(C2C1=O)C1C(=O)N(C(CC(C)C)C(=O)O)C(=O)C31 (stereo not drawn) here?
mid

More entries:
Quick check: band for O=C1CSC2=NC3=C(CCc4ccccc43)C(c3cccs3)N12 (stereo not drawn)
low

Hello team, could you let me know which band the following compound falls into: Cc1cccc(-c2noc(C(=O)NNC(=O)C(Cl)(Cl)Cl)n2)c1
high

Hi, small favor: classify O=C(c1ccccc1)N1CCc2c(nc3cc(-c4ccccc4)[nH]n3c2=O)C1 by its % inhibition Apo pol 5' 80 when you get a moment.
mid

Hello team, could you let me know which band the following compound falls into: Cc1cc2[nH]c(C(=O)Nc3ccc(F)cc3)c(CN3CCOCC3)c2s1
mid

====

Readings of % inhibition apPOL 180' for the listed molecules
measured-target: P. falciparum apicoplast DNA polymerase (Pf-apPOL) (Plasmodium falciparum, UniProt Q8ILY1)
assay-procedure: Fluorescence-based high-throughput DNA polymerase assay (molecular beacon), primary screen and dose-response;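 as to % inhibition apPOL 180': test concentration in µM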
Format: biochemical
measurement-conditions: DRC-2; concentration 40; 180'
Please reply with the bare figure in % and do not write the unit itself.

Look up % inhibition apPOL 180' for this molecule: O=C(Cc1cccs1)N1CCN(c2nc(CN3CCOCC3)cs2)CC1
69

Reported % inhibition apPOL 180', molecule O=C(Nc1c2c(nn1-c1ccccc1)CSC2)c1ccco1 : ____
65

What value of measured % inhibition apPOL 180' is listed for Nc1ncnc(NC2CCCCC2)c1[N+](=O)[O-] ?
55
